Listed here are compounds together with their documented T/C.
- System: P388 leukemia ip, CD2F1 mice, survival T/C
- protocol: NCI In Vivo Anticancer Drug Screen. Data for tumor model P388 Leukemia (intraperitoneal) in CD2F1 (CDF1) mice
- test.settings: endpoint: median survival time; dose: 25.0 mg/kg/injection; schedule: Q01DX009 (ip); vehicle: saline; higher = longer survival
Inconclusive results and toxic doses are left out.

compound	T/C
CC(=O)/C=C(\C)Nc1ccccc1	102 % of control
N=C(N)SCc1csc(N)n1	105 % of control
CCC1CN1P(=O)(OCCC#N)N1CC1CC (stereo unspecified)	104 % of control
c1ccc(C2SC3=NCCCN3Cc3ccccc32)cc1 (stereo unspecified)	109 % of control
NCCNCC[OH2+].NCCNCC[OH2+].[Ni+2].[O-][Cl+3]([O-])([O-])[O-]	93 % of control
CCCCCCC(=O)/C=C/c1ccc(OC(=O)c2ccc(Cl)cc2)cc1	94 % of control
NC(N)=N/N=C/c1ccc(Cl)cc1Cl	104 % of control
CCCCCCCCCCC[N+]1([O-])CCOCC1	99 % of control
ClCC(Br)CBr (stereo unspecified) (tested in a mixture with another compound)	96 % of control
NC(=O)c1ccc([N+](=O)[O-])o1	100 % of control
O=C(c1cc(F)ccc1Nc1ccccc1)N1CCOCC1	100 % of control
C=C(Cl)C[N+]12CN3CN(CN(C3)C1)C2	96 % of control
C[CH2][Sn]=[O].c1cc[c]([Ge]([c]2ccccc2)[c]2ccccc2)cc1	96 % of control
CCC1CN2CCc3cc(OC)c(OC)cc3C2CC1Cl (stereo unspecified)	90 % of control
O=C(Nc1ncc([N+](=O)[O-])s1)c1ccc([N+](=O)[O-])cc1	97 % of control
O=[N+]([O-])O.[Al]	100 % of control

----------
- Test system: P388 leukemia ip, CD2F1 mice, survival T/C
- protocol: NCI In Vivo Anticancer Drug Screen. Data for tumor model P388 Leukemia (intraperitoneal) in CD2F1 (CDF1) mice
- test.settings: endpoint: median survival time; dose: 50.0 mg/kg/injection; schedule: Q01DX005 (ip); vehicle: saline with Tween-80; higher = longer survival
Toxic doses and inconclusive results are not listed.
Listed here are compounds together with their documented T/C.

compound	T/C
CCCOc1cc2c(cc1C(C)c1ccccc1)OCO2 (stereo unspecified)	101 % of control
O=C(Nc1ccccc1)Nc1ccc2c(c1)C(=O)CCCC2	96 % of control
Cc1csc2nc(-c3ccccc3)cn12	98 % of control
CCOC(=O)CC1(O)CSC(=C(C(=O)OCC)C(=O)OCC)N1c1ccccc1 (stereo unspecified)	98 % of control
COc1cccc2c1ccc1nonc12	95 % of control
COC(=O)c1cc(=O)c2scc(C)[n+]2[nH]1	105 % of control
COC(=O)Nc1cc2c(cc1[N+](=O)[O-])OCCOCCOCCOCCO2	100 % of control
COc1ccc(Cc2cc3c(cc2OCCO)OCO3)cc1	105 % of control
CCOC(=O)c1nn(C)c(=O)[nH]c1=O	99 % of control
CSCCC(NC(=O)C(Cc1ccccc1)NC(=O)CNC(=O)CNC(=O)C(N)Cc1ccc(O)cc1)C(=O)O (stereo unspecified)	101 % of control
Cc1cc2c(c(Br)c1O)Oc1c(cc(C)c(O)c1Br)C21OC(=O)c2ccccc21	110 % of control
O=C1c2cccc3c([N+](=O)[O-])ccc(c23)C(=O)N1CCc1ccccn1	101 % of control
NNC(=O)C(=O)N/N=C(\CC1(O)C(=O)Nc2ccccc21)c1ccccc1O (stereo unspecified)	104 % of control
NC(C(=O)O)C(=O)O	101 % of control
CC(NNC(=S)N1CCN(c2ccccn2)CC1)c1cccc[n+]1[O-] (stereo unspecified)	103 % of control
CCOC(=O)COc1cc2c(cc1C(C)c1cc(OC)c(OC)c(OC)c1)OCO2 (stereo unspecified)	100 % of control
CC1N(C)c2cc([N+](=O)[O-])ccc2C1(C)C (stereo unspecified)	95 % of control
Cc1ccc(S(=O)(=O)C(C)(C)C(O)c2ccccc2)cc1 (stereo unspecified)	100 % of control
C[C@]12CC[C@H](O)CC1=CC[C@@H]1[C@@H]2CC[C@]2(C)C(=O)CC[C@@H]12	90 % of control
CC(SC(C)C(=O)N/N=C/c1c[nH]c2ccccc12)C(=O)N/N=C\c1c[nH]c2ccccc12 (stereo unspecified)	92 % of control
Oc1[nH]c2ccccc2c1N=Nc1nnc(-c2ccccc2)c(-c2ccccc2)n1	95 % of control

----------
Listed here are molecules together with their documented T/C.
- System: P388 leukemia ip, CD2F1 mice, survival T/C
- protocol: NCI In Vivo Anticancer Drug Screen. Data for tumor model P388 Leukemia (intraperitoneal) in CD2F1 (CDF1) mice
- test.settings: endpoint: median survival time; dose: 200.0 mg/kg/injection; schedule: Q01DX009 (ip); vehicle: distilled water + Tween-80; higher = longer survival
Inconclusive results and toxic doses are left out.
experimental.readout: T/C

molecule	measurement
O=C(O)Cc1cc(Br)c(O)c(Br)c1	100 % of control
C1=C(c2ccccc2)SC(N2CCCCC2)S1 (stereo not given)	112 % of control
O=c1c2ccccc2nnn1OCc1ccccc1	103 % of control
N/C(=N\N=C\c1cc(Br)cc(Br)c1O)N/N=C/c1cc(Br)cc(Br)c1O	98 % of control
C=CC(C)(CCC=C(C)C)N=C=O (stereo not given)	108 % of control

----------
- Tested on: P388 leukemia ip, CD2F1 mice, survival T/C
- protocol: NCI In Vivo Anticancer Drug Screen. Data for tumor model P388 Leukemia (intraperitoneal) in CD2F1 (CDF1) mice
- test.settings: endpoint: median survival time; dose: 50.0 mg/kg/injection; schedule: Q04DX002 (ip); vehicle: saline with Tween-80
Inconclusive results and toxic doses are left out. How the source made its calls: active means survival T/C of 150% or more; inactive means T/C below 125% in these data.
Classes used: 1 = active, -1 = inactive

compound	classification
Nc1nc(N)nc(-c2cccs2)n1	-1
CCCCCCN=C(N)N/N=C(\C)c1ccc2c(c1)Cc1cc(/C(C)=N/NC(N)=NCCCCCC)ccc1-2	-1
COC(=O)C1=C(C(=O)OC)C23C(=O)c4ccc(OC)c(OC)c4C1(OC)N2CCc1cc2c(cc13)OCO2 (configuration not stated)	-1
CN=C(N)N/N=C(\C)c1ccc2oc3ccc(/C(C)=N/NC(N)=NC)cc3c2c1	1
Cc1ccc([NH-])c([NH-])c1.[Cl][Pt+2][Cl]	1
COc1cc([C@@H]2c3cc4c(cc3C[C@@H]3COC(=O)[C@H]32)OCO4)cc(OC)c1OC	-1
COc1ccc(C2CC(=O)N(c3ccncc3)C(=O)C2)cc1	-1

----------
- Test system: P388 leukemia ip, CD2F1 mice, survival T/C
- protocol: NCI In Vivo Anticancer Drug Screen. Data for tumor model P388 Leukemia (intraperitoneal) in CD2F1 (CDF1) mice
- test.settings: endpoint: median survival time; dose: 50.0 mg/kg/injection; schedule: Q04DX003 (ip); vehicle: saline with Tween-80; higher = longer survival
Toxic doses and inconclusive results are not listed.
experimental.readout: T/C

compound	system	measurement
CO[C@@]12[C@H](COC(N)=O)C3=C(C(=O)C(C)=C(NCCO)C3=O)N1C[C@@H]1N[C@@H]12	P388 leukemia ip, CD2F1 mice, survival T/C	100 % of control
O=NN(CCCl)C(=O)Nc1ccc(Br)cn1	P388 leukemia ip, CD2F1 mice, survival T/C	100 % of control
O=C(NO)c1ccccc1	P388 leukemia ip, CD2F1 mice, survival T/C	106 % of control
CCCCOC(=O)c1ccc(NC(=O)Nc2ccccc2OC)cc1	P388 leukemia ip, CD2F1 mice, survival T/C	87 % of control
C[N-]N(C)C(=O)[S-].C[N-]N(C)C(=O)[S-].C[N-]N(C)C(=O)[S-].[Co]	P388 leukemia ip, CD2F1 mice, survival T/C	103 % of control
NC(=S)N/N=C/c1ccc(-c2ccccc2)cc1	P388 leukemia ip, CD2F1 mice, survival T/C	100 % of control
O=C1NC(CCCl)C(=O)NC1CCCl (stereo not drawn)	P388 leukemia ip, CD2F1 mice, survival T/C	95 % of control
CN1C(=O)C(=CN(C)c2ccccc2)C(=O)N(C)C1=O	P388 leukemia ip, CD2F1 mice, survival T/C	112 % of control

----------
- System: P388 leukemia ip, CD2F1 mice, survival T/C
- protocol: NCI In Vivo Anticancer Drug Screen. Data for tumor model P388 Leukemia (intraperitoneal) in CD2F1 (CDF1) mice
- test.settings: endpoint: median survival time; dose: 200.0 mg/kg/injection; schedule: Q01DX001 (ip); vehicle: saline; higher = longer survival
Toxic doses and inconclusive results are not listed.

compound	system	T/C
CCCCCCCCC1=CCc2c1ccc1c2ccc2cc(C(=O)Oc3cccc(N(CCCl)CCCl)c3)ccc21	P388 leukemia ip, CD2F1 mice, survival T/C	100 % of control
CCSc1cccc2nncn12	P388 leukemia ip, CD2F1 mice, survival T/C	100 % of control
OCCCOCCCOCCCOCCCO	P388 leukemia ip, CD2F1 mice, survival T/C	108 % of control
CC(=O)NC1=C(O)C2C(c3ccc(Cl)cc3)C(C#N)C(=O)N2C1=O (configuration not stated)	P388 leukemia ip, CD2F1 mice, survival T/C	103 % of control
O=C(c1ccccc1)c1nc(-c2ccccc2)oc1-c1ccccc1	P388 leukemia ip, CD2F1 mice, survival T/C	108 % of control
CC(=O)OC1CCC2C3CCC4=C/C(=N/NC(=S)Nc5ccccc5)CCC4(C)C3CCC12C (configuration not stated)	P388 leukemia ip, CD2F1 mice, survival T/C	101 % of control
Cc1[nH]c2ccc(CN)cc2c1CC(N)C(=O)O (configuration not stated)	P388 leukemia ip, CD2F1 mice, survival T/C	104 % of control
